# ASSAY SUMMARY: Cytotoxicity against human HEK 293T cells assessed as cell growth inhibition at 50 uM measured after 48 hrs by MTT assay
# Type: cell-based
As shown below, each of these compounds has a reported inhibition at 48 h, 50 µM value.

# COMPOUND, inhibition at 48 h, 50 µM
records = [
    ("O=C(Nc1ncc([N+](=O)[O-])s1)c1ccccc1O [TIZOXANIDE]", "21.6%"),
    ("CC(=O)Oc1ccccc1C(=O)Nc1ncc([N+](=O)[O-])s1 [NITAZOXANIDE]", "24.4%"),
    ("C[C@H](NC(=O)/C(C#N)=C/c1cccc(Br)n1)c1ccccc1", "97.2%"),
]

====

# ASSAY SUMMARY: Half life in Sprague-Dawley rat at 5 mg/kg, iv
# Assay type: ADME, organism-based
# APPLIED CONDITIONS: in vivo
ENDPOINT: half-life (min)

# COMPOUND, ENDPOINT, MEASURED RESULT
measured = [
    ("O=C(Nc1ncc([N+](=O)[O-])s1)c1ccc(C(F)(F)F)cc1", "half-life", 3.6),
    ("CC(=O)Oc1ccccc1C(=O)Nc1ncc([N+](=O)[O-])s1 [NITAZOXANIDE]", "half-life", 3),
]

====

# TESTED TARGET: UniProt P40763
# ASSAY SUMMARY: Inhibition of IL-6 induced STAT3 transcriptional activity in human HEK-Blue IL-6 cells assessed as secreted embryonic alkaline phosphatase reporter gene expression at 10 uM by microplate reader
# Assay type: cell-based

# STRUCTURE, inhibition
data = [
    ("O=C(Nc1ncc([N+](=O)[O-])s1)c1ccccc1[N+](=O)[O-]", "19%"),
    ("O=C(Nc1ncc([N+](=O)[O-])s1)c1ccc(O)cc1O", "15.5%"),
    ("COc1ccc(C(=O)Nc2ncc([N+](=O)[O-])s2)cc1", "14.9%"),
    ("CC(C)(C)c1ccc(C(=O)Nc2ncc([N+](=O)[O-])s2)cc1", "43.7%"),
    ("O=C(Nc1ncc([N+](=O)[O-])s1)c1ccc(O)c(O)c1", "26.7%"),
    ("O=C(Nc1ncc([N+](=O)[O-])s1)c1ccccc1Cl", "23%"),
]

====

# ASSAY SUMMARY: Antiproliferative activity against human U87MG cells assessed as cell growth inhibition measured after 48 hrs by MTT assay
# Type: functional, cell-based

# COMPOUND, UNIT OF MEASURE, IC50
rows = [
    ("CC(=O)Oc1ccccc1C(=O)Nc1ncc([N+](=O)[O-])s1 [NITAZOXANIDE]", "µM", 30),
]

====

# TESTED TARGET: Signal transducer and activator of transcription 3 (Homo sapiens) (UniProt P40763)
# Sequence (P40763 whole entry): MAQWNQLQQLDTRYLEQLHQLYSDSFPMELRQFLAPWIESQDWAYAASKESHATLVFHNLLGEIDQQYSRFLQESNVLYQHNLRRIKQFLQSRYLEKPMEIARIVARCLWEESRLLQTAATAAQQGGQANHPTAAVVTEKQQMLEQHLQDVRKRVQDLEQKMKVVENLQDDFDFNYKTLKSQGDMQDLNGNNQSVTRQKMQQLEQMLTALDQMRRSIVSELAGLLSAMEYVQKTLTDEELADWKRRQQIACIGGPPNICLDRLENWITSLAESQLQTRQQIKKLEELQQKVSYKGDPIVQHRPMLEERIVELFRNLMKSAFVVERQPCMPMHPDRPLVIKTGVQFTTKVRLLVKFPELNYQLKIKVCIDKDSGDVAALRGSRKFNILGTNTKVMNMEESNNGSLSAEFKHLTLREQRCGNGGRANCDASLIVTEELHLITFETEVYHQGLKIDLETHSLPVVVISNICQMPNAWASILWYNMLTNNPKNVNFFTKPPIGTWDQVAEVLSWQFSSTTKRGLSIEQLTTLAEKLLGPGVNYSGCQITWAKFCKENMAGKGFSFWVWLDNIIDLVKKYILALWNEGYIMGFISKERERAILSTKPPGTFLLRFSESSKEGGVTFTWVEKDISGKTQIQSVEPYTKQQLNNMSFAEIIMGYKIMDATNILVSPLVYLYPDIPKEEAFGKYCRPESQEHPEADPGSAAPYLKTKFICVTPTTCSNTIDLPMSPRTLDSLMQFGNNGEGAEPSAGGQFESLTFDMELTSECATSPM
# ASSAY SUMMARY: Inhibition of IL-6 induced STAT3 transcriptional activity in human HEK-Blue IL-6 cells assessed as secreted embryonic alkaline phosphatase reporter gene expression at 10 uM by microplate reader
# Format: cell-based

# COMPOUND, TESTED TARGET, UNIT OF MEASURE, inhibition
measured = [
    ("C#CCN(C(=O)c1ccc(C(F)(F)F)cc1)c1ncc([N+](=O)[O-])s1", "Signal transducer and activator of transcription 3 (Homo sapiens) (UniProt P40763)", "%", 9.1),
    ("O=C(Nc1ncc([N+](=O)[O-])s1)c1ccc(S(=O)(=O)Nc2ccccc2)cc1", "Signal transducer and activator of transcription 3 (Homo sapiens) (UniProt P40763)", "%", 9),
    ("NS(=O)(=O)c1ccc(C(=O)Nc2ncc([N+](=O)[O-])s2)cc1", "Signal transducer and activator of transcription 3 (Homo sapiens) (UniProt P40763)", "%", -9.7),
    ("O=C(Nc1ncc([N+](=O)[O-])s1)c1ccc(N2CCOCC2)cc1", "Signal transducer and activator of transcription 3 (Homo sapiens) (UniProt P40763)", "%", 9),
    ("CC(=O)Oc1ccccc1C(=O)Nc1ncc([N+](=O)[O-])s1 [NITAZOXANIDE]", "Signal transducer and activator of transcription 3 (Homo sapiens) (UniProt P40763)", "%", 54.6),
    ("O=C(Nc1ncc([N+](=O)[O-])s1)c1ccc(O)cc1", "Signal transducer and activator of transcription 3 (Homo sapiens) (UniProt P40763)", "%", 20.9),
    ("O=C(Nc1ncc([N+](=O)[O-])s1)c1ccccc1Br", "Signal transducer and activator of transcription 3 (Homo sapiens) (UniProt P40763)", "%", 25.1),
    ("CN1CCN(c2ccc(C(=O)Nc3ncc([N+](=O)[O-])s3)cc2)CC1", "Signal transducer and activator of transcription 3 (Homo sapiens) (UniProt P40763)", "%", -3.3),
    ("CS(=O)(=O)c1ccc(C(=O)Nc2ncc([N+](=O)[O-])s2)cc1", "Signal transducer and activator of transcription 3 (Homo sapiens) (UniProt P40763)", "%", 5.3),
    ("O=C(Nc1ncc([N+](=O)[O-])s1)c1cccc(O)c1", "Signal transducer and activator of transcription 3 (Homo sapiens) (UniProt P40763)", "%", 28.5),
    ("Cc1ccccc1C(=O)Nc1ncc([N+](=O)[O-])s1", "Signal transducer and activator of transcription 3 (Homo sapiens) (UniProt P40763)", "%", 36.4),
    ("O=C(Nc1ncc([N+](=O)[O-])s1)c1ccccc1", "Signal transducer and activator of transcription 3 (Homo sapiens) (UniProt P40763)", "%", 35.5),
    ("O=C(Nc1ncc([N+](=O)[O-])s1)c1ccccc1F", "Signal transducer and activator of transcription 3 (Homo sapiens) (UniProt P40763)", "%", 22.1),
]

The origin of these recorded values is ChEMBL document CHEMBL4706740.
